Below is a list of entries, each paired with its recorded melting point value.
VALUE TYPE: melting point

1) CCCn1nc(-c2sc(C(=O)NC(C)C)nc2-c2ccccc2)ccc1=O [Example 179]
146.5 to 147.5 °C
2) CC(C)n1nc(-c2sc(C(=O)N(C)C)nc2-c2ccccc2)ccc1=O [Example 213]
141 to 144 °C
3) C=CCn1nc(-c2sc(C(=O)NCc3ccccn3)nc2-c2ccccc2)ccc1=O [Example 204]
117 to 118 °C
4) CC(C)n1nc(-c2sc(NC(=O)CCNCc3ccccn3)nc2-c2ccccc2)ccc1=O [Example 124]
200 to 201 °C
5) CC(C)n1nc(-c2sc(NC(=O)CN3CCCC3)nc2-c2ccccc2)ccc1=O.Cl
> 250 °C
6) CC(C)n1nc(-c2sc(NC(=O)CNCCO)nc2-c2ccccc2)ccc1=O [Example 117]
142 to 144 °C
7) CC(C)n1nc(-c2sc(C(=O)NC3CC3)nc2-c2cccc(Cl)c2)ccc1=O [Example 199]
118.5 to 119.5 °C
8) Nc1nc(-c2ccccc2)c(-c2ccc(=O)n(CC3CC3)n2)s1 [Example 88]
204 to 206 °C
9) CC(C)n1nc(-c2sc(Nc3ccccn3)nc2-c2ccccc2)ccc1=O [Example 67]
194 to 195 °C
10) CC(C)NCC(=O)Nc1nc(-c2ccccc2)c(-c2ccc(=O)n(C(C)C)n2)s1.Cl
> 250 °C
11) CC(C)n1nc(-c2sc(C(N)=O)nc2-c2ccccc2F)ccc1=O [Example 163]
213 to 215 °C
12) CC(C)n1nc(-c2sc(NC=O)nc2-c2ccccc2)ccc1=O [Example 94]
232 to 234 °C
13) Cn1nc(-c2sc(C(N)=O)nc2-c2ccccc2)ccc1=O [Example 159]
231 to 232 °C

* * *

Below is a list of entries, each paired with its recorded melting point value.
VALUE TYPE: melting point

1) CC(C)n1nc(-c2sc(C(=O)N3CCOCC3)nc2-c2ccccc2)ccc1=O
161.5 to 162.5 °C
2) COCCNCC(=O)Nc1nc(-c2ccccc2)c(-c2ccc(=O)n(C(C)C)n2)s1.Cl
252 to 253 °C
3) CC(C)n1nc(-c2sc(C(=O)N3CCN(C)CC3)nc2-c2ccccc2)ccc1=O
155 to 156.5 °C
4) O=C(NC1CC1)c1nc(-c2ccccc2)c(-c2ccc(=O)[nH]n2)s1
> 250 °C
5) CC(C)NC(=O)c1nc(-c2ccccc2F)c(-c2ccc(=O)n(C(C)C)n2)s1
129 to 130.5 °C
6) CC(C)n1nc(-c2sc(NC(=O)c3ccc(CNCCN4CCCCC4)cc3)nc2-c2ccccc2)ccc1=O
134 to 136 °C
7) CC(C)n1nc(-c2sc(N)nc2-c2cccc(Cl)c2)ccc1=O
235.5 to 237 °C
8) CC(C)n1nc(-c2sc(N)nc2-c2cccc(F)c2)ccc1=O
237 to 238 °C
9) CC(C)n1nc(-c2sc(NC(=O)CN(C)CCc3ccccn3)nc2-c2ccccc2)ccc1=O
94 to 96 °C
10) Cn1nc(-c2sc(C(=O)NC3CC3)nc2-c2ccccc2)ccc1=O
163 to 164 °C
11) CC(C)n1nc(-c2sc(NC(=O)CNCc3ccncc3)nc2-c2ccccc2)ccc1=O
187 to 188 °C
12) CC(C)n1nc(-c2sc(NCc3ccccc3)nc2-c2ccccc2)ccc1=O
157 to 158 °C
13) CCn1nc(-c2sc(C(N)=O)nc2-c2ccccc2)ccc1=O
231 to 232.5 °C
14) CC(C)n1nc(-c2sc(NC(=O)c3ccc(F)cc3)nc2-c2ccccc2)ccc1=O
225 to 226 °C
15) CC(C)n1nc(-c2sc(NC(=O)OC(C)(C)C)nc2-c2ccccc2)ccc1=O
198 to 199 °C
16) CC(=O)Nc1nc(-c2ccc(F)cc2)c(-c2ccc(=O)n(C(C)C)n2)s1
236 to 237.5 °C
17) CCCNC(=O)c1nc(-c2ccccc2)c(-c2ccc(=O)n(Cc3ccccc3)n2)s1
120 to 121 °C
18) Cc1cnc(CNC(=O)c2nc(-c3ccc(F)cc3)c(-c3ccc(=O)n(C(C)C)n3)s2)cn1
187.5 to 188.5 °C
19) CC(C)n1nc(-c2sc(NC(=O)N(C)C)nc2-c2ccccc2)ccc1=O
199 to 200 °C

The values you see were collected from patent US20050004134A1.
